- Procedure Details: plasma free fraction (centrifugal filter units)
- Format: in vitro ADME
- Assay Context: heparinized plasma; human plasma, n=3; read-out: plasma free fraction (f1)
Measured Attribute: fraction unbound
Answers are plain numbers.

Ask | Supply fraction unbound value. Item: COCC1=C(C(=O)OCC[18F])[C@H](c2ccc(F)c(F)c2)N(C(=O)NCCCN2CCC(c3cccc(NC(C)=O)c3)CC2)C(=O)N1 [[^18F]FE@SNAP]
Reply | 0.126

----------
- Test Target: UniProt:Q969V1
- Sequence (Q969V1 whole entry): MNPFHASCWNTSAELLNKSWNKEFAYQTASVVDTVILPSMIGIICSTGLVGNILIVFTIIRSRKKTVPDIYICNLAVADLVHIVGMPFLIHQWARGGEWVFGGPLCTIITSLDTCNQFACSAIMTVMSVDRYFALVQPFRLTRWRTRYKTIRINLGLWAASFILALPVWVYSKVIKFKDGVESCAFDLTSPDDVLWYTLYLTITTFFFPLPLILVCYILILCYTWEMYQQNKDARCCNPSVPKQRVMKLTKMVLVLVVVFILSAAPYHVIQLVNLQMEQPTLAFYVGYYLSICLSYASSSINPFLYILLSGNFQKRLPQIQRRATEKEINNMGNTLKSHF
- Procedure Details: preliminary competition binding against [^125I]MCH on hMCHR2
Measured Attribute: Ki

Ask | Provide measured Ki on UniProt:Q969V1 for COCC1=C(C(=O)OCCF)C(c2ccc(F)c(F)c2)N(C(=O)NCCCN2CCC(c3cccc(NC(C)=O)c3)CC2)C(=O)N1 (stereo not shown) please.
Reply | > 1 µM
